The entries below come with measured normalized growth values attached.
experiment: chemical genetic growth profiling, strain panel (AID 1159580);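 also: tested at 20 µM; growth read once vehicle control cultures reached saturation at 30 °C; 1 = growth at the plate median or of vehicle wells; lower values mean less growth of the strain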; conditions: S. cerevisiae deletion strains, growth OD, locus YOR070C, strain gyp1, stronger effect = lower value
Out of some 5,500 compounds screened, about 2,000 (36%) were called active. About 18% were inconclusive and are not listed. The list shows a part of the results.
Form field (numeric): enter value without unit.

>>> observed_result("Nc1ccc(S(=O)(=O)Nc2cnc3ccccc3n2)cc1")
1.01
>>> observed_result("Nc1c2ccccc2nc2ccccc12")
0.625
>>> observed_result("C[C@@H]1OC(O[C@H]2C(O[C@H]3CC[C@@]4(C)C(CC[C@]5(C)C4CC=C4C6CC(C)(C)CC[C@]6(C(=O)O)CC[C@]45C)[C@]3(C)CO)OC[C@H](O)[C@@H]2O)[C@H](O)[C@H](O)[C@H]1O (some centres undefined)")
0.0577
>>> observed_result("Cc1cc(O)ccc1Cl")
0.993
>>> observed_result("Cc1cc(-n2c(=O)[nH]c(=O)n(C)c2=O)ccc1Oc1ccc(SC(F)(F)F)cc1")
0.754

Sample CC(=O)O[C@H]1CC[C@@]2(C)C(CC[C@]3(C)C2CC=C2C4CC(C)(C)CC[C@]4(C)CC[C@]23C)C1(C)C (some centres undefined) — what was its normalized growth?
1.02

Sample COc1ccc2[nH]cc(CCN)c2c1 — what was its normalized growth?
0.979

Sample Cc1cc(O)cc(C)c1Cl — what was its normalized growth?
0.906

Sample N#CC(O[C@@H]1O[C@H](CO[C@@H]2O[C@H](CO)[C@@H](O)[C@H](O)[C@H]2O)[C@@H](O)[C@H](O)[C@H]1O)c1ccccc1 (some centres undefined) — what was its normalized growth?
0.967

---

experiment: chemical genetic growth profiling, strain panel (AID 1159580);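 also: tested at 20 µM; growth read once vehicle control cultures reached saturation at 30 °C; 1 = growth at the plate median or of vehicle wells; lower values mean less growth of the strain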; settings: S. cerevisiae deletion strains, growth OD, locus YJL154C, strain vps35, stronger effect = lower value
Out of some 5,500 compounds screened, about 2,000 (36%) were called active. Another 18% or so got no clear call; they are omitted. The list shows a part of the results.
Reported Endpoint: normalized growth

Examples with answers:
>>> observed_result("COc1ccc2c(c1)c(CC(=O)OCC(=O)O)c(C)n2C(=O)c1ccc(Cl)cc1")
"0.992 (inactive)"
>>> observed_result("NNC(=O)c1ccncc1")
"1.01 (inactive)"
>>> observed_result("C#C[C@]1(O)CCC2C3CCC4=CC(=O)CC[C@@H]4C3CC[C@@]21CC (stereo partly drawn)")
"0.993 (inactive)"
>>> observed_result("C[C@@H]1OC(O[C@H]2C(O[C@H]3CC[C@@]4(C)C(CC[C@]5(C)C4CC=C4C6CC(C)(C)CC[C@]6(C(=O)O)CC[C@]45C)[C@]3(C)CO)OC[C@H](O)[C@@H]2O)[C@H](O)[C@H](O)[C@H]1O (stereo partly drawn)")
"0.0589 (active)"

Sample CC(=O)O[C@H]1CC[C@@]2(C)C(CC[C@]3(C)C2CC=C2C4CC(C)(C)CC[C@]4(C)CC[C@]23C)C1(C)C (stereo partly drawn) — what was its normalized growth?
0.975 (inactive)

Sample Nc1ccc(S(=O)(=O)c2ccc(N)cc2)cc1 — what was its normalized growth?
0.987 (inactive)

Sample OC(CCN1CCCCC1)(c1ccccc1)C1CC2C=CC1C2 (stereo not drawn) — what was its normalized growth?
0.987 (inactive)

Sample CC1(C)CC(O)C2(C)CCC3(C)C(=CCC4C5(C)CCC(O)C(C)(CO)C5CCC43C)C2C1 (stereo not drawn) — what was its normalized growth?
1.02 (inactive)
